- assay info: Pharmacokinetic study of KW-3902, single intravenous dose, serum concentrations
- Type: in vivo
- applied conditions: human, 5 mg, single intravenous dose 5 mg, Group 2, serum, read-out: T1/2 Mean (converted)
measured property: half-life (min)
Give bare numbers, in min.

Ask: Determine from records and report half-life for CCCn1c(=O)c2[nH]c(C34CC5CC(CC3C5)C4)nc2n(CCC)c1=O
Reply: 576

----------
- assay info: Pharmacokinetic study of KW-3902, single intravenous dose, serum concentrations
- Type: in vivo
- applied conditions: human, 20 mg, single intravenous dose 20 mg, Group 3, serum, read-out: Tmax Median
measured property: Tmax
Just the number plus its unit, please.

Ask: Return Tmax (reported value) for this compound: CCCn1c(=O)c2[nH]c(C34CC5CC(CC3C5)C4)nc2n(CCC)c1=O
Reply: 1.2 h

----------
- assay info: Pharmacokinetic study of KW-3902, single intravenous dose, serum concentrations
- Type: in vivo
- applied conditions: human, 10 mg, single intravenous dose 10 mg, Group 2, serum
measured property: AUC(0-inf) (ng·h/mL)
Answers are plain numbers, in ng·h/mL.

Ask: Hello, please tell me recorded AUC(0-inf) for this one: CCCn1c(=O)c2[nH]c(C34CC5CC(CC3C5)C4)nc2n(CCC)c1=O
Reply: 496

----------
- assay info: Pharmacokinetic study of KW-3902, single intravenous dose, serum concentrations
- Type: in vivo
- applied conditions: human, 30 mg, single intravenous dose 30 mg, Group 3, serum, read-out: Vss∞ Mean
measured property: Vd (L)
One number for each entry, in L.

Ask: Respond only with Vd recorded for CCCn1c(=O)c2[nH]c(C34CC5CC(CC3C5)C4)nc2n(CCC)c1=O
Reply: 189

----------
- assay info: Pharmacokinetic study of KW-3902, single intravenous dose, serum concentrations
- Format: in vivo
- applied conditions: human, 5 mg, single intravenous dose 5 mg, Group 2, serum
measured property: MRT inf

Ask: Give reported MRT inf value for CCCn1c(=O)c2[nH]c(C34CC5CC(CC3C5)C4)nc2n(CCC)c1=O [KW-3902, 8-(3-noradamantyl)-1,3-dipropylxanthine]
Reply: 5.8 h

----------
- assay info: Pharmacokinetic study of KW-3902, single intravenous dose, serum concentrations
- Assay type: in vivo
- applied conditions: human, 60 mg, single intravenous dose 60 mg, Group 4, serum, read-out: Tmax Median
measured property: Tmax (h)
One number for each entry, in h.

Ask: Specify measured Tmax for CCCn1c(=O)c2[nH]c(C34CC5CC(CC3C5)C4)nc2n(CCC)c1=O .
Reply: 2.2

----------
- assay info: Pharmacokinetic study of KW-3902, single intravenous dose, serum concentrations
- Format: in vivo
- applied conditions: human, 5 mg, single intravenous dose 5 mg, Group 2, serum, read-out: Vss∞ Mean
measured property: Vd (L)
Numbers only, in L.

Ask: Give Vd for CCCn1c(=O)c2[nH]c(C34CC5CC(CC3C5)C4)nc2n(CCC)c1=O
Reply: 106

----------
- assay info: Pharmacokinetic study of KW-3902, single intravenous dose, serum concentrations
- Type: in vivo
- applied conditions: human, 1 mg, single intravenous dose 1 mg, Group 1, serum
measured property: Cmax
Include the unit right after the number.

Ask: State its Cmax: CCCn1c(=O)c2[nH]c(C34CC5CC(CC3C5)C4)nc2n(CCC)c1=O
Reply: 0.0129 µg/mL

----------
- assay info: Pharmacokinetic study of KW-3902, single intravenous dose, serum concentrations
- Assay type: in vivo
- applied conditions: human, 30 mg, single intravenous dose 30 mg, Group 3, serum, read-out: T1/2 Mean (converted)
measured property: half-life (h)
Numbers only, in h.

Ask: Give me measured half-life, please, for this molecule: CCCn1c(=O)c2[nH]c(C34CC5CC(CC3C5)C4)nc2n(CCC)c1=O
Reply: 14.7

----------
- assay info: Pharmacokinetic study of KW-3902, single intravenous dose, serum concentrations
- Format: in vivo
- applied conditions: human, 5 mg, single intravenous dose 5 mg, Group 2, serum, read-out: Tmax Median
measured property: Tmax (min)
Give bare numbers, in min.

Ask: Identify measured Tmax corresponding to CCCn1c(=O)c2[nH]c(C34CC5CC(CC3C5)C4)nc2n(CCC)c1=O [KW-3902, 8-(3-noradamantyl)-1,3-dipropylxanthine]
Reply: 30

----------
- assay info: Pharmacokinetic study of KW-3902, single intravenous dose, serum concentrations
- Assay type: in vivo
- applied conditions: human, 10 mg, single intravenous dose 10 mg, Group 2, serum, read-out: Vss∞ Mean
measured property: Vd (L)
Answers are plain numbers, in L.

Ask: Dear colleague, please send me the reported Vd for CCCn1c(=O)c2[nH]c(C34CC5CC(CC3C5)C4)nc2n(CCC)c1=O when you can.
Reply: 161

----------
- assay info: Pharmacokinetic study of KW-3902, single intravenous dose, serum concentrations
- Type: in vivo
- applied conditions: human, 2.5 mg, single intravenous dose 2.5 mg, Group 2 (n = 8)
measured property: AUC(0-inf) (µg·h/mL)
One number for each entry, in µg·h/mL.

Ask: Write down AUC(0-inf) measured for item CCCn1c(=O)c2[nH]c(C34CC5CC(CC3C5)C4)nc2n(CCC)c1=O [KW-3902, 8-(3-noradamantyl)-1,3-dipropylxanthine]
Reply: 0.084

----------
- assay info: Pharmacokinetic study of KW-3902, single intravenous dose, serum concentrations
- Format: in vivo
- applied conditions: human, 60 mg, single intravenous dose 60 mg, Group 4, serum, read-out: CL∞ Mean (converted)
measured property: clearance (mL/min)
One number for each entry, in mL/min.

Ask: Report clearance for CCCn1c(=O)c2[nH]c(C34CC5CC(CC3C5)C4)nc2n(CCC)c1=O
Reply: 378

----------
- assay info: Pharmacokinetic study of KW-3902, single intravenous dose, serum concentrations
- Assay type: in vivo
- applied conditions: human, 2.5 mg, single intravenous dose 2.5 mg, Group 1 (n = 4), read-out: T1/2 Mean (converted)
measured property: half-life (h)
Numbers only, in h.

Ask: Return half-life for the following compound: CCCn1c(=O)c2[nH]c(C34CC5CC(CC3C5)C4)nc2n(CCC)c1=O [KW-3902, 8-(3-noradamantyl)-1,3-dipropylxanthine]
Reply: 11.4

----------
- assay info: Pharmacokinetic study of KW-3902, single intravenous dose, serum concentrations
- Type: in vivo
- applied conditions: human, 2.5 mg, single intravenous dose 2.5 mg, Group 1 (n = 4), read-out: CL∞ Mean (converted)
measured property: clearance (mL/min)
Give bare numbers, in mL/min.

Ask: Give the value of clearance reported for the following: CCCn1c(=O)c2[nH]c(C34CC5CC(CC3C5)C4)nc2n(CCC)c1=O
Reply: 443

----------
- assay info: Pharmacokinetic study of KW-3902, single intravenous dose, serum concentrations
- Assay type: in vivo
- applied conditions: human, 20 mg, single intravenous dose 20 mg, Group 3, serum
measured property: AUC(0-inf) (ng·h/mL)
Give bare numbers, in ng·h/mL.

Ask: Consider the molecule CCCn1c(=O)c2[nH]c(C34CC5CC(CC3C5)C4)nc2n(CCC)c1=O [KW-3902, 8-(3-noradamantyl)-1,3-dipropylxanthine] . State its measured AUC(0-inf).
Reply: 898

----------
- assay info: Pharmacokinetic study of KW-3902, single intravenous dose, serum concentrations
- Assay type: in vivo
- applied conditions: human, 50 mg, single intravenous dose 50 mg, Group 4, serum, read-out: T1/2 Mean (converted)
measured property: half-life (min)
Give bare numbers, in min.

Ask: Read the entry CCCn1c(=O)c2[nH]c(C34CC5CC(CC3C5)C4)nc2n(CCC)c1=O and write its reported half-life.
Reply: 930

----------
- assay info: Pharmacokinetic study of KW-3902, single intravenous dose, serum concentrations
- Type: in vivo
- applied conditions: human, 50 mg, single intravenous dose 50 mg, Group 4, serum, read-out: CL∞ Mean (converted)
measured property: clearance (mL/min)
Numbers only, in mL/min.

Ask: Specify clearance for CCCn1c(=O)c2[nH]c(C34CC5CC(CC3C5)C4)nc2n(CCC)c1=O and stop.
Reply: 427

----------
- assay info: Pharmacokinetic study of KW-3902, single intravenous dose, serum concentrations
- Type: in vivo
- applied conditions: human, 2.5 mg, single intravenous dose 2.5 mg, Group 2 (n = 8), read-out: Tmax Median
measured property: Tmax (min)
Give bare numbers, in min.

Ask: Supply reported Tmax belonging to this compound: CCCn1c(=O)c2[nH]c(C34CC5CC(CC3C5)C4)nc2n(CCC)c1=O
Reply: 30

----------
- assay info: Pharmacokinetic study of KW-3902, single intravenous dose, serum concentrations
- Format: in vivo
- applied conditions: human, 60 mg, single intravenous dose 60 mg, Group 4, serum, read-out: T1/2 Mean (converted)
measured property: half-life (h)
Answers are plain numbers, in h.

Ask: Please give the documented half-life of CCCn1c(=O)c2[nH]c(C34CC5CC(CC3C5)C4)nc2n(CCC)c1=O
Reply: 16.4

----------
- assay info: Pharmacokinetic study of KW-3902, single intravenous dose, serum concentrations
- Format: in vivo
- applied conditions: human, 30 mg, single intravenous dose 30 mg, Group 3, serum
measured property: AUC(0-inf) (ng·h/mL)
Answers are plain numbers, in ng·h/mL.

Ask: Determine from records and report AUC(0-inf) for CCCn1c(=O)c2[nH]c(C34CC5CC(CC3C5)C4)nc2n(CCC)c1=O [KW-3902, 8-(3-noradamantyl)-1,3-dipropylxanthine]
Reply: 1190
